- experiment notes: Example 1: multiple-dose randomized 3-way crossover PK study of two IV tramadol regimens vs 100 mg oral q6h
- condition parameters: human, plasma, po, 100 mg, Tmax(42-48), 100 mg oral q6h to h 42, mean
Where a name gives a salt, the structure may show the parent alone.
assay endpoint: Tmax (h)
One number for each entry, in h.

Ask | Any idea what its Tmax is? The molecule is COc1cccc([C@]2(O)CCCC[C@H]2CN(C)C)c1 (racemic) [Tramadol, hydrochloride]
Reply | 44

====

- experiment notes: Example 4: multiple dose steady-state dose proportionality study, tramadol injection 50/100 mg IV and Ultram tablet 50/100 mg oral q6h
- Format: in vivo, human
- condition parameters: human, plasma, po, 100 mg
Where a name gives a salt, the structure may show the parent alone.
assay endpoint: AUC(0-t)
Give me the value, and tack the unit on after it.

Ask | Look up AUC(0-t): COc1cccc([C@]2(O)CCCC[C@H]2CN(C)C)c1 (racemic) [Tramadol, hydrochloride]
Reply | 8660 ng·h/mL
